Every entry's value here was drawn from PubChem BioAssay AID1852.

# Assay comment: TNF-a-driven NF-kB reporter inhibitors, primary screen, selectivity assay for NOD1/NOD2 signaling inhibitor project, cell-based, HEK293T NF-kB-Luc, luminescence (AID 1852)
# Reported conditions: TNF-a induced, 14 h, at 4 µM, stronger effect = higher value
About 1,100 (44%) of roughly 2,500 compounds were called active. The set was probably picked from earlier hits. This is one part of the list.
Measured parameter: inhibition (%)
Just the number please, in %, no unit attached.

Query: Name the recorded inhibition for `O=C(O)CCn1cc(/C=C\C(=O)c2ccc(Cl)cc2)c(-c2cccc(Br)c2)n1` .
Reply: 77.2

Query: Name the recorded inhibition for CCC(=O)NC(/C=C/c1ccccc1)c1cc([N+](=O)[O-])c2cccnc2c1O (stereo not given) .
Reply: 81.6

Query: Name the recorded inhibition for CC(=O)NC(c1ccccc1)c1cc([N+](=O)[O-])c2cccnc2c1O (stereo not given) .
Reply: 99.5

Query: Name the recorded inhibition for CC(=O)NC(c1ccc(C)cc1)c1cc([N+](=O)[O-])c2cccnc2c1O (stereo not given) .
Reply: 76.4

Query: Name the recorded inhibition for `N#C/C(=C(/O)Cc1cccc2ccccc12)c1nc2ccccc2s1` .
Reply: 74.8

Query: Name the recorded inhibition for `Cc1cccc(CS(=O)(=O)c2ncc(Cl)c(C(=O)Nc3nnc(C(C)C)s3)n2)c1` .
Reply: 84.2

Query: Name the recorded inhibition for COc1ccc(NC(=O)/C(Cl)=C(/Cl)S(=O)Cc2ccc(C)cc2)cn1 (stereo not given) .
Reply: 105

Query: Name the recorded inhibition for `Cc1ccc(-c2nn(CCC(=O)O)cc2/C=C\C(=O)c2ccc(Br)cc2)cc1` .
Reply: 94.7

Query: Name the recorded inhibition for CCC(C)[C@@H](NC(=O)OC(C)(C)C)c1nnc(S(=O)(=O)Cc2cccc(C)c2)o1 (stereo not given in full) .
Reply: 45.7

Query: Name the recorded inhibition for CC(=O)NC(c1ccc(C)cc1)c1cc(Cl)c2cccnc2c1O (stereo not given) .
Reply: 77.9

* * *

# Assay comment: TNF-a-driven NF-kB reporter inhibitors, primary screen, selectivity assay for NOD1/NOD2 signaling inhibitor project, cell-based, HEK293T NF-kB-Luc, luminescence (AID 1852)
# Reported conditions: TNF-a induced, 14 h, at 4 µM
Hit rate of the full screen: of about 2,500 compounds, about 1,100 (44%) were called active.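 Rule for the calls: active = inhibition above 50% at 4 µM in the single-point screen; inactive = inhibition of 50% or less.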 The set was probably picked from earlier hits. This is one part of the list.
Your response should consist of one outcome taken from active, inactive

Query: Test call for this molecule, please: `O=C(CCS(=O)(=O)c1ccccc1)Nc1cccc(-c2nc3ccccc3s2)c1`
Reply: active

Query: Test call for this molecule, please: `Cc1ccc2c(C)ccc(O)c2n1`
Reply: inactive

Query: Test call for this molecule, please: `Cc1ccccc1N=Nc1ccc(O)c2ncccc12`
Reply: active

Query: Test call for this molecule, please: `CS(=O)(=O)c1ccc2nc(NC(=O)CCS(=O)(=O)c3ccccc3)sc2c1`
Reply: inactive

Query: Test call for this molecule, please: `Cc1ccc(N=Nc2ccc(O)c3ncccc23)cc1`
Reply: active

Query: Test call for this molecule, please: O=C(CCl)N1N=C(c2ccco2)CC1c1ccco1 (stereo unspecified)
Reply: active

* * *

# Assay comment: TNF-a-driven NF-kB reporter inhibitors, primary screen, selectivity assay for NOD1/NOD2 signaling inhibitor project, cell-based, HEK293T NF-kB-Luc, luminescence (AID 1852)
# Reported conditions: TNF-a induced, 14 h, at 4 µM, stronger effect = higher value
In all, about 2,500 compounds went through this assay and about 1,100 (44%) were called active. The set was probably picked from earlier hits. The list shows a part of the results.
Measured parameter: inhibition

Query: Name the recorded inhibition for `Cc1csc2ncnc(N3CCN(C(=O)Nc4ccc(OC(F)(F)F)cc4)CC3)c12` .
Reply: 102% (active)

Query: Name the recorded inhibition for `Cc1cccc(/C=C(\c2nc3ccccc3[nH]2)S(=O)(=O)c2ccccc2)c1` .
Reply: 82.2% (active)

Query: Name the recorded inhibition for CC(C)(C)c1ccc(-n2ncc3c2CCCC3NC(=O)C2(C(N)=O)CC2)cc1 (stereo unspecified) .
Reply: 61.3% (active)

Query: Name the recorded inhibition for CCC(C)NC(=O)Cn1cnc2sc(C)c(S(=O)(=O)N3CCN(c4ccccc4OC)CC3)c2c1=O (stereo unspecified) .
Reply: 9.7% (inactive)

Query: Name the recorded inhibition for COc1ccccc1C1/C(=C(/O)c2ccc(OC(C)C)cc2)C(=O)C(=O)N1c1cc(C)on1 (stereo unspecified) .
Reply: 35.4% (inactive)

Query: Name the recorded inhibition for `COc1ccc(CCNC(=O)c2ccc3c(c2)N(Cc2ccccc2)CCS3)cc1OC` .
Reply: -41.1% (inactive)

Query: Name the recorded inhibition for `Cc1csc2ncnc(N3CCN(S(=O)(=O)c4cccc(C(F)(F)F)c4)CC3)c12` .
Reply: 44.4% (inactive)

Query: Name the recorded inhibition for `CC(C)c1ccc(/C=C(\c2nc3ccccc3[nH]2)S(=O)(=O)c2ccccc2)cc1` .
Reply: 107% (active)

Query: Name the recorded inhibition for Cc1cc(C(=O)NC2CCCc3c2cnn3-c2ccc(C(C)(C)C)cc2)nn1C (stereo unspecified) .
Reply: 68.8% (active)

Query: Name the recorded inhibition for `COc1ccc(-c2cc(=O)oc3cc(OC(=O)C4CCCCC4)c(Cl)cc23)cc1` .
Reply: 95.3% (active)

Query: Name the recorded inhibition for `COc1cc(/C=C/c2ccc3cccc(OC)c3n2)c(OC(C)=O)c([N+](=O)[O-])c1` .
Reply: 9.5% (inactive)

Query: Name the recorded inhibition for `COc1ccc(-n2cnc3c(sc4nc(N5CCOCC5)c5c(c43)CCCC5)c2=O)cc1` .
Reply: 46.4% (inactive)

Query: Name the recorded inhibition for `Cc1ccc(-n2c(C)c([N+](=O)[O-])c3ccc(O)cc32)cc1` .
Reply: 40.4% (inactive)

Query: Name the recorded inhibition for `O=C(Nc1cccc(-c2ccc(N3CCCCC3)nn2)c1)C(F)(F)F` .
Reply: -90.7% (inactive)

Query: Name the recorded inhibition for Cc1cccc(-n2ncc3c2CCCC3NC(=O)C2(C(N)=O)CC2)c1C (stereo unspecified) .
Reply: 29.3% (inactive)

Query: Name the recorded inhibition for `COc1ccc(-c2cc(=O)oc3cc(O)ccc23)cc1` .
Reply: 2.6% (inactive)

Query: Name the recorded inhibition for CCOC(=O)C1CCN(S(=O)(=O)c2ccc3c(c2)N(C(C)=O)CC(C)S3)CC1 (stereo unspecified) .
Reply: 5.4% (inactive)

Query: Name the recorded inhibition for `COc1ccc2cc3c(N)nn(C(=O)c4ccccc4Cl)c3nc2c1` .
Reply: 94.3% (active)

Query: Name the recorded inhibition for `O=C(CCC(=O)N1CCOc2ccccc21)NCc1ccccn1` .
Reply: 18.7% (inactive)

Query: Name the recorded inhibition for `O=C(Oc1cc2oc(=O)cc(-c3ccccc3)c2cc1Cl)C1CCCCC1` .
Reply: 77.6% (active)

Query: Name the recorded inhibition for `COc1ccc2cc3c(N)nn(C(=O)c4ccccc4[N+](=O)[O-])c3nc2c1` .
Reply: 79.5% (active)
